This listing pairs molecules with measured log10 of IC50.
Target: CYP2C19 (Homo sapiens)
Construct: from tissue; host or cells: human liver microsomes
Sequence (P33261 whole entry): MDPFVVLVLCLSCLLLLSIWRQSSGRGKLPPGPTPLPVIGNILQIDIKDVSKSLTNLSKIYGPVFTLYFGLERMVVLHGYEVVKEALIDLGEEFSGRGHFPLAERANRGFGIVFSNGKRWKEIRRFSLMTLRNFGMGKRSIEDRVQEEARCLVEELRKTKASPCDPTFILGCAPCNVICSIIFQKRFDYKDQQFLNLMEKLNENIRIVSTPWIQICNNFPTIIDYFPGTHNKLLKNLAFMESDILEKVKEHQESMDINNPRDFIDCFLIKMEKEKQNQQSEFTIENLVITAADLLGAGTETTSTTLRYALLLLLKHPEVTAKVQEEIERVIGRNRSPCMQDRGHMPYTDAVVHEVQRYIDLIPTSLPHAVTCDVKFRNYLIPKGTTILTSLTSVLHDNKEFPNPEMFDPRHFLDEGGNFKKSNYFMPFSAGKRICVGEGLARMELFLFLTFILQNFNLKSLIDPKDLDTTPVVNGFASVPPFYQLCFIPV
Test: CYP inhibition assay, human liver microsomes, substrate S-mephenytoin
Format: in vitro ADME
Details: human liver microsomes, 10 min incubation, LC-MS/MS; read-out: CYP Inhibition Activity (IC50/nM) CYP2C19
Values reflect log10 of reported IC50 (nM).

Illustrative cases are given below, each with its answer.
CN(C)CC1(C)CCN(c2ccc(C(F)(F)F)cc2NC(=O)c2ccc(-c3ccncc3)o2)CC1 [Example 80] ... 3.87
CC1CCN(c2ccc(C(F)(F)F)cc2NC(=O)c2ccc(-c3ccncc3)o2)CC1 [Example 34] ... 3.60
O=C(Nc1cc(C(F)(F)F)ccc1N1CCN(Cc2cocn2)CC1)c1ccc(-c2ccncc2)o1 [Reference Example 4, reference compound] ... 2.46
CC1(CN)CCN(c2ccc(C(F)(F)F)cc2NC(=O)c2ccc(-c3ccncc3)o2)CC1 [Example 78] ... 4.30
CN(C)C(=O)C1(C)CCN(c2ccc(C3CC3)cc2NC(=O)c2ccc(C3CCOCC3)o2)CC1 [Example 86] ... 3.61

Value (log10 of IC50, CYP2C19 (Homo sapiens)) for record COc1ccc(N2CCC(C)(O)CC2)c(NC(=O)c2ccc(-c3ccncc3)o2)c1 [Example 9] = 2.95

CC1(CO)CCN(c2ccc(C3CC3)cc2NC(=O)c2ccc(C3CCOCC3)o2)CC1 [Example 67] tested on CYP2C19 (Homo sapiens) gave log10 of IC50: 3.90

Recorded log10 of IC50 for O=C(Nc1cc(C(F)(F)F)ccc1N1CCC(O)CC1)c1ccc(-c2ccncc2)o1 [Example 32] on CYP2C19 (Homo sapiens) was 3.04

CNCC1(C)CCN(c2ccc(C(F)(F)F)cc2NC(=O)c2ccc(-c3ccncc3)o2)CC1 [Example 79] tested on CYP2C19 (Homo sapiens) gave log10 of IC50: 4.25

CC1(CO)CCN(c2ccc(Cl)cc2NC(=O)c2ccc(C3CCOCC3)o2)CC1 [Example 68] tested on CYP2C19 (Homo sapiens) gave log10 of IC50: 4.06

The molecule CN(C)C(=O)C1(C)CCN(c2ccc(C(F)(F)F)cc2NC(=O)c2ccc(C3CCOCC3)o2)CC1 [Example 77] on CYP2C19 (Homo sapiens): log10 of IC50 was 3.68

Entry O=C(Nc1cc(C(F)(F)F)ccc1N1CCN(Cc2ccccn2)CC1)c1ccc(-c2ccncc2)o1 [Reference Example 1, reference compound] , CYP2C19 (Homo sapiens) data, log10 of IC50 value: 2.36

GET /values?item= CC1(O)CCN(c2ccc(Cl)cc2NC(=O)c2ccc(-c3ccncc3)o2)CC1 [Example 5] &system= CYP2C19 (Homo sapiens) returns log10 of IC50: 3.34

CYP2C19 (Homo sapiens) assay, molecule O=C(Nc1cc(C(F)(F)F)ccc1N1CCC(O)CC1)c1ccc(C2CCOCC2)o1 [Example 33] , recorded log10 of IC50 = 3.91

These data points were gathered from patent US11420969B2.
